- Procedure Text: Cell lysate reaction of pMT enzymes with psi-ionone, irones quantified by HS-SPME-GCMS
- Type: biochemical
- Condition Label: single mutations vs parent (pMT7 or pMT12)
Measurement Name: in-vitro production of cis-α-irone (in words)

[
  {
    "Molecule": "F212L: pMT12 with F212L (protein, Modified from pMT1) MPQEARTPQQQVTADEVGDWYDKFGEVYHLTLGESVHCGLWFPPDAPVPQDMELVTMSSQAQDRFTDYLIETLDPKAGQHLLDIGCGTGRPALKAARQRGIAVTGVAVSKEQIAAANRLAAGHGLTERLTFEVADAMRLPYEDESFDCAWAIESLDHMDRAKALGEAWRVLKPGGDLLVAEEVVTEELTEPETALFETLFALNVPPRLGEFLDIVSGAGFHTLSLKDLSADLAMTMNVFALGVYSRRAEFTERFGAEFVDGLLAGLGSAQETVIRKTRFFMATLRKPAV",
    "Result": "moderate increase"
  },
  {
    "Molecule": "S268H: pMT12 with S268H (protein, Modified from pMT1) MPQEARTPQQQVTADEVGDWYDKFGEVYHLTLGESVHCGLWFPPDAPVPQDMELVTMSSQAQDRFTDYLIETLDPKAGQHLLDIGCGTGRPALKAARQRGIAVTGVAVSKEQIAAANRLAAGHGLTERLTFEVADAMRLPYEDESFDCAWAIESLDHMDRAKALGEAWRVLKPGGDLLVAEEVVTEELTEPETALFETLFALNVPPRLGEFFDIVSGAGFHTLSLKDLSADLAMTMNVFALGVYSRRAEFTERFGAEFVDGLLAGLGHAQETVIRKTRFFMATLRKPAV",
    "Result": "moderate increase"
  }
]
